Test system: ACHN renal
protocol: NCI tumour cell line growth inhibition, 48 h
quantity.measured: TGI

Asked: Form field: TGI recorded for `NCCCCNCCCNC(=O)c1nc(-c2csc(CCN)n2)sc1Cl` with ACHN renal (enter value)
Given back: > 100 µM

Asked: // map `O=[N+]([O-])c1ccc2c(c1)[O][Sn]([I])([I])[O]2` to recorded TGI (system: ACHN renal)
Given back: > 100 µM

Asked: Return TGI measured with ACHN renal given this compound: `COc1ccc(/C=C2\C(=O)N(C(=O)Cc3ccccc3)N=C2C)cc1OC`
Given back: > 100 µM

Asked: Record lookup: for ACHN renal, what TGI belongs to COC1CC(OC(=O)c2ccccc2)C(OC(=O)c2ccccc2)C(C)O1 (centres undefined) ?
Given back: > 100 µM

Asked: Tell me reported TGI for CN(Cc1cnc2nc(N)nc(N)c2n1)c1ccc(C(=O)NC(CCC(=O)NCC(P(=O)(O)O)P(=O)(O)O)C(=O)O)cc1 (centres undefined) , tested with ACHN renal.
Given back: > 100 µM

Asked: Recall the recorded TGI for `COc1ccc2c(c1)/c(=C/c1ccc(N(C)C)cc1)c1cc(-c3ccccc3)[n+](C)n12` with ACHN renal and state it.
Given back: 5.68 µM

Asked: Param readout= TGI; system= ACHN renal; entry= CC(=O)O[C@@H]1C2C(=O)OC(=O)C2C2CCC[C@]23O[C@H]13 (some centres undefined) ; returns value.
Given back: > 100 µM

Asked: Write down the reported TGI of `Cc1cc(C)n(CN(Cn2nc(C)cc2C)C2CCCCC2)n1` , test system: ACHN renal.
Given back: 51.9 µM

Asked: Under ACHN renal: TGI value of BrC1(Br)C2/C=C\CCCCC21 (centres undefined) ?
Given back: > 100 µM

Asked: Param readout = TGI; param system = ACHN renal; param query = `C=C1C(=O)O[C@H]2C[C@@]3(C)[C@H](O)CCC(=C)[C@@H]3[C@@H](OC(C)=O)[C@H]12` ; response: value
Given back: 12.9 µM

Asked: Recorded TGI for `COc1ccc(-c2cn[nH]c2-c2cc(OC)c3c(c2)OCCO3)cc1` with ACHN renal, please?
Given back: > 100 µM

Asked: Provide value of TGI for this record tested with ACHN renal: `C/C(O)=C/c1nc2ccc([N+](=O)[O-])cc2nc1/C=C(/C)O`
Given back: > 100 µM

Asked: Can you look up TGI on ACHN renal for N#CC(NNC(=O)c1ccccc1O)c1cccc(O)c1 (centres undefined) ?
Given back: > 100 µM

Asked: Request body: readout TGI, system ACHN renal, query CCOc1c(Cl)cc(CNC(C)C(O)c2ccccc2)cc1OC (centres undefined) . Return the value.
Given back: > 100 µM

Asked: // lookup TGI | system=ACHN renal | key= `CC(C)CNC(=O)Cn1c(-c2ccccc2)cc2ccccc21`
Given back: > 100 µM

Asked: Form entry - test system: ACHN renal; read-out: TGI; compound: N#C[C@@H]1C(n2ccc(N)nc2=O)O[C@H](CO)[C@H]1O (some centres undefined)
Given back: > 100 µM

Asked: Any idea what TGI came out for `C1=CC=C2NCCOCCNC3=CC=CC=CC3=NCCOCCN=C2C=C1` on ACHN renal?
Given back: > 100 µM

Asked: Checklist item: TGI tested on ACHN renal, entry `CCOc1ccccc1NC(=O)CCc1nc(=S)[nH][nH]1` , value?
Given back: > 100 µM

Asked: Item: `CC(C)[C@H]1C(=O)N[C@@H](CCCN=C(N)N)C(=O)NCC(=O)N[C@@H](CC(=O)O)C(=O)N[C@H](Cc2ccccc2)C(=O)N1C` Test system: ACHN renal Read-out: TGI Value: ?
Given back: > 100 µM
